protein stability index by entry:
B1: PKD2L1 (parent)
chain: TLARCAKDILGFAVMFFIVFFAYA

Variants of: B1
Experiment: protein stability index of a GFP-peptide fusion (GPS, HEK-293T) (PSI 1-6); higher = more stable;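 further: lentivirally expressed fusions sorted by FACS into six bins by GFP to DsRed ratio, PSI derived from sequencing read proportions per bin multiplied by bin number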
Conditions: c terminus: a fixed tail appended
Measurement Name: protein stability index

Chain | Measurement Name | Value Measured
TLARCAKDILGFAVMVFIVFFAYA | protein stability index | 2.07
TLARCAKHILGFAVMFFIVFFAYA | protein stability index | 2.66
TLARCAKDILGFAVMFFNVFFAYA | protein stability index | 1.6
TLARCAQDILGFAVMFFIVFFAYA | protein stability index | 3.71
TLARCAKDILGFRVMFFIVFFAYA | protein stability index | 3.17
TLARCAKDILGFAVMFFPVFFAYA | protein stability index | 2.18
TLARCAKDILGFAVMFYIVFFAYA | protein stability index | 2.37
TCARCAKDILGFAVMFFIVFFAYA | protein stability index | 3.44
TLANCAKDILGFAVMFFIVFFAYA | protein stability index | 2.79
TLQRCAKDILGFAVMFFIVFFAYA | protein stability index | 2.7
THARCAKDILGFAVMFFIVFFAYA | protein stability index | 2.35
TLARCAKDILGFAVMFFIVSFAYA | protein stability index | 2.46
TLARCAKDYLGFAVMFFIVFFAYA | protein stability index | 1.94
TLARCAFDILGFAVMFFIVFFAYA | protein stability index | 2.78
TLARCAKPILGFAVMFFIVFFAYA | protein stability index | 2.25
TLARCAKDILGFALMFFIVFFAYA | protein stability index | 3.47
TLARCAKDILNFAVMFFIVFFAYA | protein stability index | 2.4
TLARCAKDVLGFAVMFFIVFFAYA | protein stability index | 2.24
TLARCAKDILFFAVMFFIVFFAYA | protein stability index | 1.22
TLARCAKDILGFAVMFFIDFFAYA | protein stability index | 3.22
TLARCAKDIGGFAVMFFIVFFAYA | protein stability index | 2.03
TLAICAKDILGFAVMFFIVFFAYA | protein stability index | 2.64
